Target: UniProt Q96RI1
Experiment: Human FXR (NR1H4) Assay: Gal4 promoter driven luciferase reporter transactivation in CHO cells (Indigo Bioscience kit IB00601)
Assay type: cell-based
Settings: potency range, Human FXR (NR1H4) reporter assay in CHO cells; read-out: EC50
pEC50: −log10 of the molar value.
PARAMETER: pEC50

Problem: Provide value of pEC50 for this record tested with UniProt Q96RI1: O=C(Nc1cccnc1)N1C2CCC1CC(OCc1c(-c3c(Cl)cccc3Cl)noc1C1CC1)C2 (stereo not shown) [Example 15]
Result: > 8.00

Problem: Provide value of pEC50 for this record tested with UniProt Q96RI1: CCOc1cc(C(=O)O)ccc1NC(=O)N1C2CCC1CC(OCc1c(-c3ccccc3OC(F)(F)F)noc1C1CC1)C2 (stereo not shown) [Example 823]
Result: 7.00 to 8.00

Problem: Provide value of pEC50 for this record tested with UniProt Q96RI1: CCOC(=O)c1cccc(NC(=O)N2C3CCC2CC(NCc2c(-c4c(Cl)cccc4Cl)noc2C2CC2)C3)c1 (stereo not shown) [Example 827]
Result: > 8.00

Problem: Provide value of pEC50 for this record tested with UniProt Q96RI1: COC(=O)c1cccc(F)c1NC(=O)N1C2CCC1CC(OCc1c(-c3ccccc3OC(F)(F)F)noc1C1CC1)C2 (stereo not shown) [Example 763]
Result: 6.00 to 7.00

* * *

Molecular target: human FXR (NR1H4) (Homo sapiens)
Sequence (Q96RI1 whole entry, the tested form may be a part): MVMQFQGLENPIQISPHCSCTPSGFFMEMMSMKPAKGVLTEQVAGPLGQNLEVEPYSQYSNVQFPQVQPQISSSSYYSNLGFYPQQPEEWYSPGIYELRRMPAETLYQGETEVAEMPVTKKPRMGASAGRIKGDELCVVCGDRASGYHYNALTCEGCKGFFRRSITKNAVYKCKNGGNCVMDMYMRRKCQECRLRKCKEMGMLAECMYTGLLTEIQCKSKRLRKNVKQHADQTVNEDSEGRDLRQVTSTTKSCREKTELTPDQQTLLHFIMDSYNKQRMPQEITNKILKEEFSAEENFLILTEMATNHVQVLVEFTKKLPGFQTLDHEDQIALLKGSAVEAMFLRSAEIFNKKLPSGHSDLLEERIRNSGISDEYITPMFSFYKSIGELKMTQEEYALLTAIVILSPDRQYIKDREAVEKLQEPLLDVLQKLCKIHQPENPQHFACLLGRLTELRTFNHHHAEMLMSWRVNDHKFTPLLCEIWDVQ
Assay: Human FXR (NR1H4) Assay: Gal4 promoter driven luciferase reporter transactivation in CHO cells (Indigo Bioscience kit IB00601)
Assay type: cell-based
Conditions: potency range, Human FXR (NR1H4) reporter assay in CHO cells; read-out: EC50
Would you mind telling me the reported EC50 of each entry?

Problem: Please look up its EC50: O=C(NCc1ccc(F)c(F)c1)N1C2CCC1CC(OCc1c(-c3c(Cl)cccc3Cl)noc1C1CC1)C2 (stereo not shown)
Result: < 0.01 µM

Problem: Please look up its EC50: CC1(S(=O)(=O)NC(=O)c2cnc3ccc(NC(=O)N4C5CCC4CC(OCc4c(-c6c(Cl)cccc6Cl)noc4C4CC4)C5)cc3c2)CC1 (stereo not shown)
Result: 0.1 to 1 µM

Problem: Please look up its EC50: COC(=O)c1ccc(F)c(NC(=O)N2C3CCC2CC(OCc2c(-c4c(Cl)cccc4Cl)noc2C2CC2)C3)c1 (stereo not shown)
Result: < 0.01 µM

Problem: Please look up its EC50: CCOC(=O)c1ccc(NC(=O)N2C3CCC2CC(OCc2c(-c4c(Cl)cccc4Cl)noc2C2CC2)C3)cc1-c1cncnc1 (stereo not shown)
Result: < 0.01 µM

* * *

Target: human FXR (NR1H4) (Homo sapiens)
Test: Human FXR (NR1H4) Assay: Gal4 promoter driven luciferase reporter transactivation in CHO cells (Indigo Bioscience kit IB00601)
Assay type: cell-based
Conditions: potency range, Human FXR (NR1H4) reporter assay in CHO cells; read-out: EC50
pEC50: −log10 of the molar value.
Would you mind telling me the reported pEC50 of each entry?

Problem: Please look up its pEC50: CC(C)(C)c1ccc(S(=O)(=O)NC(=O)c2ccc(NC(=O)N3C4CCC3CC(OCc3c(-c5ccccc5OC(F)(F)F)noc3C3CC3)C4)cc2)cc1 (centres unmarked)
Result: 6.00 to 7.00

Problem: Please look up its pEC50: O=C(O)c1ccc(NC(=O)N2C3CCC2CC(OCc2c(-c4c(Cl)cccc4Cl)noc2C2CC2)C3)cc1 (centres unmarked)
Result: > 8.00

Problem: Please look up its pEC50: O=C(O)c1ccc(NC(=O)N2C3CCC2CC(OCc2c(-c4c(Cl)cccc4Cl)noc2C2CC2)C3)c(C(F)(F)F)c1 (centres unmarked)
Result: 7.00 to 8.00

Problem: Please look up its pEC50: CCOC(=O)c1ccc(NC(=O)N2C3CCC2CC(OCc2c(-c4c(Cl)cccc4Cl)noc2C2CC2)C3)cc1 (centres unmarked)
Result: 7.00 to 8.00

Problem: Please look up its pEC50: COc1ccc(-c2cc(NC(=O)N3C4CCC3CC(OCc3c(-c5c(Cl)cccc5Cl)noc3C3CC3)C4)ccc2C(=O)O)cn1 (centres unmarked)
Result: > 8.00

Problem: Please look up its pEC50: COC(=O)c1ccc(NC(=O)N2C3CCC2CC(OCc2c(-c4c(Cl)cccc4Cl)noc2C2CC2)C3)cc1-c1ccc(OC)nc1 (centres unmarked)
Result: > 8.00

Problem: Please look up its pEC50: O=C(Nc1ccc(F)c(C(F)(F)F)c1)N1C2CCC1CC(OCc1c(-c3c(Cl)cccc3Cl)noc1C1CC1)C2 (centres unmarked)
Result: > 8.00

Problem: Please look up its pEC50: O=C(O)c1cccc(NC(=O)N2C3CCC2CC(OCc2c(-c4c(Cl)cccc4Cl)noc2C2CC2)C3)c1 (centres unmarked)
Result: 6.00 to 7.00

Problem: Please look up its pEC50: CCOc1cc(C(=O)O)ccc1NC(=O)N1C2CCC1CC(OCc1c(-c3ccccc3C3CC3)noc1C1CC1)C2 (centres unmarked)
Result: 7.00 to 8.00

Problem: Please look up its pEC50: C[C@H](NC(=O)N1C2CCC1CC(OCc1c(-c3c(Cl)cccc3Cl)noc1C1CC1)C2)c1ccccc1 (some centres unmarked)
Result: > 8.00

Problem: Please look up its pEC50: COC(=O)c1ccc2nc(NC(=O)N3C4CCC3CC(OCc3c(-c5c(Cl)cccc5Cl)noc3C3CC3)C4)ccc2c1 (centres unmarked)
Result: 7.00 to 8.00

Problem: Please look up its pEC50: COC(=O)c1ccc(OC)c(NC(=O)N2C3CCC2CC(OCc2c(-c4ccccc4OC(F)(F)F)noc2C2CC2)C3)c1 (centres unmarked)
Result: 7.00 to 8.00

Problem: Please look up its pEC50: CN(C)S(=O)(=O)NC(=O)c1ccc(NC(=O)N2C3CCC2CC(OCc2c(-c4c(Cl)cccc4Cl)noc2C2CC2)C3)cc1 (centres unmarked)
Result: 7.00 to 8.00

Problem: Please look up its pEC50: O=C(O)c1ccc(F)c(NC(=O)N2C3CCC2CC(OCc2c(-c4c(Cl)cccc4Cl)noc2C2CC2)C3)c1 (centres unmarked)
Result: 6.00 to 7.00
